In this section we review reported BMC10 any morphological effect or mortality values for a set of compounds.
test system: Danio rerio embryo; test: BMC10 any morphological effect or mortality at 120 hpf; higher = less toxic

Take a look at these entries with their results.
C1=C2CCCN[C@H]2[C@@H]2C[C@H]1[C@H]1CCCCN1C2 [Aloperine]	> 100 µM
CCc1cccc(CC)c1NC(=O)N1Cc2[nH]nc(NC(=O)c3ccc(N4CCN(C)CC4)cc3)c2C1	> 100 µM
O=C(NCCO)c1cccc(-c2cc(Nc3ccc(OC(F)(F)F)cc3)ncn2)c1 [GNF-5]	28.6 µM
CC(C)(C)c1cc(C(=O)/C(C#N)=N/Nc2cccc(Cl)c2)no1 [ESI-09]	0.422 µM
O=C([O-])P(=O)([O-])[O-].[Na+].[Na+].[Na+] [Foscarnet]	> 100 µM

What value of measured BMC10 any morphological effect or mortality is listed for O=C1NC(=O)c2c1c1c3ccccc3[nH]c1c1[nH]c3ccccc3c21 [Arcyriaflavin A] ? 1.1 µM

Fill blank: measured BMC10 any morphological effect or mortality of the compound Cl.NCCc1ccc(S(=O)(=O)F)cc1 [AEBSF] is ____. > 100 µM

Suppose we examine the compound C[C@H](NC(=O)Cc1cc(F)cc(F)c1)C(=O)N[C@@H]1C(=O)N(C)c2ccccc2-c2ccccc21 [DBZ] ; what BMC10 any morphological effect or mortality value has been reported? 0.365 µM

Reference for the values: the supplement of paper PMC11821682
